system under test: T1, human angiotensin AT2 receptor (human, UniProt P50052 1-363)
T1 sequence (looked up): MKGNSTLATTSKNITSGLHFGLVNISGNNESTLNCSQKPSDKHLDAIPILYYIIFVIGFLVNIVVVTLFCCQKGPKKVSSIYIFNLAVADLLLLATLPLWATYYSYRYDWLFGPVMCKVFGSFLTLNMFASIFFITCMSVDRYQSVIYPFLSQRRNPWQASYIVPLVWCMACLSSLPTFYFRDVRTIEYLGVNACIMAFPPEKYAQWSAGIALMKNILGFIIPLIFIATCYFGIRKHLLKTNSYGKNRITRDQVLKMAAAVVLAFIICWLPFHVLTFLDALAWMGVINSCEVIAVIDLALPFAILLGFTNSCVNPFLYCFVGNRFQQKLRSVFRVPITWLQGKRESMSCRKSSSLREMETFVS
Square brackets hold non-standard residues; d marks the D form. Ends that are not written are not given here. 2Thi = N[C@@H](Cc1cccs1)C(=O)O

- binder: "XRPXGXSXXR (D-Arg at 0; Hyp at 3; Igl at 5; D-Igl at 7; Oic at 8 (bradykinin numbering)) [B9430]"
  quantity unit: "%"
  % Inhibition ATII receptor: 70
- binder: "XRPXGXSXXR (D-Arg at 0; Hyp at 3; Thi at 5; D-Tic at 7; Oic at 8 (bradykinin numbering)) [Hoe 140]"
  quantity unit: "%"
  % Inhibition ATII receptor: 29
- binder: "RPPGFS [Bradykinin (1-6)]"
  quantity unit: "%"
  % Inhibition ATII receptor: -12
- binder: "XRPXGXSXXR (D-Arg at 0; Hyp at 3; Thi at 5; D-Igl at 7; Oic at 8 (bradykinin numbering)) [B9340]"
  quantity unit: "%"
  % Inhibition ATII receptor: 35
- binder: "PPGFSPFR [Bradykinin (2-9)]"
  quantity unit: "%"
  % Inhibition ATII receptor: -13
- binder: "PPGFSP [Bradykinin (2-7)]"
  quantity unit: "%"
  % Inhibition ATII receptor: -6
- binder: "RPPGFS[dF]FR [[DPhe7] Bradykinin]"
  quantity unit: "%"
  % Inhibition ATII receptor: 9
- binder: "RPPG[2Thi]S[dF][2Thi]R [[Thi5,8,DPhe7] Bradykinin]"
  quantity unit: "%"
  % Inhibition ATII receptor: 53
- binder: "RPPGF [Bradykinin (1-5)]"
  quantity unit: "%"
  % Inhibition ATII receptor: 1
